Target: DRD2 F1103.28L (Homo sapiens, UniProt P14416, F110L)
Construct: expressed in transfected cells; host or cells: HEK293T (ATCC CRL-11268)
Sequence (P14416 whole entry F110L): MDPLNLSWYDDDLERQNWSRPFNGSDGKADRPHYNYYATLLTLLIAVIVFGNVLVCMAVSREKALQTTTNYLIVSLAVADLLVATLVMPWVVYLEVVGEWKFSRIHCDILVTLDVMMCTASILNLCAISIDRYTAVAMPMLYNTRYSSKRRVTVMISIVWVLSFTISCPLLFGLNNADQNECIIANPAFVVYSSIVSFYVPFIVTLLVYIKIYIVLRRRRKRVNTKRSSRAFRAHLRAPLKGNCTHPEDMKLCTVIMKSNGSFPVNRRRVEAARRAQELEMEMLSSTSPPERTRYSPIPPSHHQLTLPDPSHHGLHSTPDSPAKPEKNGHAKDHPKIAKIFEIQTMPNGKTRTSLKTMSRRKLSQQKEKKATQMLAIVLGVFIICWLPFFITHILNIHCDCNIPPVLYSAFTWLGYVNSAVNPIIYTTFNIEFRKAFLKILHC
Assay: Gαi/o-mediated cAMP inhibition (GloSensor), mutant
Type: cell-based
Settings: DRD2 F1103.28L (b138 head prints DRD2 F1063.28L)
Task for the reader: assign each of the following molecules its reported EC50.
Write the value in nM as a bare number.

## Task So what's the measured EC50 for this one? CCOc1cccc2cc(C(C)NCC3(O)CCCCCC3)oc12 (centres unmarked) [O4LE7]
## Result 3.61

## Task So what's the measured EC50 for this one? CCOc1cccc2cc([C@@H](C)NCC3(O)CCCCC3)oc12 [O4RE6]
## Result 1.24

## Task So what's the measured EC50 for this one? CCOc1cccc2cc(C(C)NCC3(O)CCCCCCC3)oc12 (centres unmarked) [O4LE8]
## Result 5.14

## Task So what's the measured EC50 for this one? CCOc1cccc2cc(C(C)NCC3(O)CCCCC3)oc12 (centres unmarked) [O4LE6]
## Result 11.3

###

Target: DRD2 (D2 long receptor) (Homo sapiens, UniProt P14416)
Sequence (P14416 whole entry): as the sequence (P14416 whole entry F110L) above, with L110F counted along it
Assay: Gαi1-γ2 dissociation BRET assay, HEK293T
Assay type: cell-based
Conditions: agonist
measurement name: EC50 (nM)
Write the value in nM as a bare number.

## Task Quick check: EC50 on DRD2 (D2 long receptor) (Homo sapiens, UniProt P14416), item CCOc1cccc2cc(C(C)NCC3(O)CCCCC3)oc12 (stereo not shown) ?
## Result 24.1

###

Target: DRD2 (D2 long receptor) (Homo sapiens, UniProt P14416)
Experiment: Gαi/o-mediated cAMP inhibition (GloSensor split-luciferase cAMP reporter), HEK293T;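 further: compounds applied 15 min at room temperature, then luciferin plus 400 nM isoproterenol to raise cAMP through endogenous β2-adrenergic receptors, luminescence read 15 min later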
Assay type: cell-based
Details: Fig_S11d; Log[Drug] -6.52; replicate values
measurement name: response, Fig_S11d dose-response source data

## Task So what's the measured response, Fig_S11d dose-response source data for this one? CCOc1cccc2cc(C(C)NCC3(O)CCCCCC3)oc12 (stereo not shown)
## Result 96.8634

## Task So what's the measured response, Fig_S11d dose-response source data for this one? CCOc1cccc2cc(C(C)NCC3(O)CCCCCCC3)oc12 (stereo not shown)
## Result 81.714

## Task So what's the measured response, Fig_S11d dose-response source data for this one? CCOc1cccc2cc(C(C)NCC3(O)CCCCC3)oc12 (stereo not shown)
## Result 93.5634

## Task So what's the measured response, Fig_S11d dose-response source data for this one? CCOc1cccc2cc(C(C)NCC3(O)CCCC3)oc12.Cl (racemic)
## Result 89.8047

###

Molecular target: DRD2 F1103.28A (Homo sapiens, UniProt P14416, F110A)
Sequence (P14416 whole entry F110A): as the sequence (P14416 whole entry F110L) above, with L110A counted along it
Format: binding
Set-up: expressed in transfected cells; host or cells: HEK293T (ATCC CRL-11268)
Details: DRD2 F1103.28A; read-out: Ki
measurement name: pKi
Here pKi is given on a logarithmic scale as minus log10 of the concentration in mol/L.

## Task So what's the measured pKi for this one? COc1cccc2cc(C(C)NCC3(O)CCCCC3)oc12.Cl (centres unmarked) [O3LE6]
## Result 5.49

## Task So what's the measured pKi for this one? CCOc1cccc2cc(C(C)NCC3(O)CCCC3)oc12.Cl (racemic) [O4LE5]
## Result 6.03

## Task So what's the measured pKi for this one? CC(NCC1(O)CCCCC1)c1cc2cccc(O)c2o1.Cl (centres unmarked) [O2LE6]
## Result 5.24

## Task So what's the measured pKi for this one? CCOc1cccc2cc(C(C)NCc3ccccc3)oc12.Cl (centres unmarked) [O4LE9]
## Result 5.28

## Task So what's the measured pKi for this one? CCOc1cccc2cc([C@@H](C)NCC3(O)CCCCC3)oc12 [O4RE6]
## Result 6.31

## Task So what's the measured pKi for this one? CCCCOc1cccc2cc(C(C)NCC3(O)CCCCC3)oc12.Cl (centres unmarked) [O6LE6]
## Result 6.52

## Task So what's the measured pKi for this one? CCOc1cccc2cc(C(C)NCC3(O)CCCCC3)oc12 (centres unmarked) [O4LE6]
## Result 6.14

## Task So what's the measured pKi for this one? CCOc1cccc2cc([C@H](C)NCC3(O)CCCCC3)oc12 [O4SE6]
## Result 6.28
